# System: NCI-H23 lung
# method: NCI tumour cell line growth inhibition, 48 h
metric: TGI

As a guide, the following entries are already answered.
O=[N+]([O-])c1ccc2[nH]nc(OCc3ccccc3Cl)c2c1    > 100 µM
CC1(C(=O)O)CCC2(C)CCC3(C)C(=CC(=O)C4C5(C)CCC(O)C(C)(C)C5CCC43C)C2C1 (stereo not given)    44.8 µM
COC(=O)C1=C(C(=O)OC)SC(=C2SCSC3=C2SC(C(=O)OC)=C(C(=O)OC)C32SC3=C(CCCC3)S2)S1    > 100 µM
COC(=O)C1CC(C=[N+](C)C)=C(SC)N1C(=O)OCc1ccccc1 (stereo not given)    > 100 µM

Now turn to the next compound.
TGI value, target or system NCI-H23 lung, for Cc1oc2c(cc(O)c3cc(O)ccc32)c2cccc1-2 : > 100 µM

* * *

Below is a list of entries, each paired with its recorded TGI value.
# Tested on: SW-620 colon
# method: NCI tumour cell line growth inhibition, 48 h

As a guide, the following entries are already answered.
COC(=O)C1CC(C=[N+](C)C)=C(SC)N1C(=O)OCc1ccccc1 (configuration not stated)    > 100 µM
CC(=O)/C=C/C1=C(C)CCCC1(C)CC(C)C (configuration not stated)    44.1 µM
C=C1CCN2CC[C@@H](OC(=O)/C(C)=C\C)[C@@H]12    > 100 µM
Cc1csc(-c2nnc(Nc3ccc(Oc4ncccc4-c4ccnc(N)n4)cc3)c3ccccc23)c1    > 100 µM
CC(=O)N(C(=O)CC(=O)N1N=C(c2ccccc2)C(N=Nc2ccccc2[N+](=O)[O-])C1=O)c1ccc(Cl)cc1 (configuration not stated)    > 10 µM

Reported TGI ( Cc1ccnc(NS(=O)(=O)c2ccc(N=[N+]=[N-])cc2)n1 ) = > 100 µM

Reported TGI ( CC1SC(c2ccc(F)cc2)N(NC(=O)C(O)c2ccccc2)C1=O (configuration not stated) ) = > 100 µM

* * *

# Tested on: T-47D breast
# method: NCI tumour cell line growth inhibition, 48 h
metric: TGI

As a guide, the following entries are already answered.
COc1ccc(CCN=C2NC(=O)/C(=C/c3ccc4ncccc4c3)S2)cc1    > 25 µM
Nc1ccccc1SC(CC(=O)c1ccccc1)c1cccc([N+](=O)[O-])c1 (stereo not drawn)    36.2 µM
CN(C)CC1CC/C(=C\c2ccc(O)cc2)C1=O (stereo not drawn)    5.34 µM
CC(=O)c1c2c(c3ccccc3c1O)O[C@@H]1OCC[C@H]21    > 100 µM
O=C1NC(=NC(CO)Cc2ccccc2)S/C1=C\c1ccc2ncccc2c1 (stereo not drawn)    > 25 µM
N[C@@H](CCC(=O)NCP(=O)(O)O)C(=O)O    > 100 µM
COc1cc(S(=O)(=O)Nc2nc(-c3ccc(N4C(=O)C(CC(=O)O)SC4c4cccs4)cc3)cs2)ccc1Cl (stereo not drawn)    91.9 µM
COc1ccc(-c2[nH]c3c4c(nc5c(c24)C(=O)CC(C)(C)C5)CC(C)(C)C3)cc1    > 100 µM

TGI value, target or system T-47D breast, for O=S(=O)(c1ccccc1)N1CCN(S(=O)(=O)c2ccccc2)c2ccccc21 : > 100 µM

TGI value, target or system T-47D breast, for CCN1C(=O)N(c2ccccc2)C2NC(=S)N(/N=C/C=C/c3ccccc3OC)C21 (stereo not drawn) : > 100 µM
